Biological target: BRM (Homo sapiens)
Sequence (P51531 whole entry): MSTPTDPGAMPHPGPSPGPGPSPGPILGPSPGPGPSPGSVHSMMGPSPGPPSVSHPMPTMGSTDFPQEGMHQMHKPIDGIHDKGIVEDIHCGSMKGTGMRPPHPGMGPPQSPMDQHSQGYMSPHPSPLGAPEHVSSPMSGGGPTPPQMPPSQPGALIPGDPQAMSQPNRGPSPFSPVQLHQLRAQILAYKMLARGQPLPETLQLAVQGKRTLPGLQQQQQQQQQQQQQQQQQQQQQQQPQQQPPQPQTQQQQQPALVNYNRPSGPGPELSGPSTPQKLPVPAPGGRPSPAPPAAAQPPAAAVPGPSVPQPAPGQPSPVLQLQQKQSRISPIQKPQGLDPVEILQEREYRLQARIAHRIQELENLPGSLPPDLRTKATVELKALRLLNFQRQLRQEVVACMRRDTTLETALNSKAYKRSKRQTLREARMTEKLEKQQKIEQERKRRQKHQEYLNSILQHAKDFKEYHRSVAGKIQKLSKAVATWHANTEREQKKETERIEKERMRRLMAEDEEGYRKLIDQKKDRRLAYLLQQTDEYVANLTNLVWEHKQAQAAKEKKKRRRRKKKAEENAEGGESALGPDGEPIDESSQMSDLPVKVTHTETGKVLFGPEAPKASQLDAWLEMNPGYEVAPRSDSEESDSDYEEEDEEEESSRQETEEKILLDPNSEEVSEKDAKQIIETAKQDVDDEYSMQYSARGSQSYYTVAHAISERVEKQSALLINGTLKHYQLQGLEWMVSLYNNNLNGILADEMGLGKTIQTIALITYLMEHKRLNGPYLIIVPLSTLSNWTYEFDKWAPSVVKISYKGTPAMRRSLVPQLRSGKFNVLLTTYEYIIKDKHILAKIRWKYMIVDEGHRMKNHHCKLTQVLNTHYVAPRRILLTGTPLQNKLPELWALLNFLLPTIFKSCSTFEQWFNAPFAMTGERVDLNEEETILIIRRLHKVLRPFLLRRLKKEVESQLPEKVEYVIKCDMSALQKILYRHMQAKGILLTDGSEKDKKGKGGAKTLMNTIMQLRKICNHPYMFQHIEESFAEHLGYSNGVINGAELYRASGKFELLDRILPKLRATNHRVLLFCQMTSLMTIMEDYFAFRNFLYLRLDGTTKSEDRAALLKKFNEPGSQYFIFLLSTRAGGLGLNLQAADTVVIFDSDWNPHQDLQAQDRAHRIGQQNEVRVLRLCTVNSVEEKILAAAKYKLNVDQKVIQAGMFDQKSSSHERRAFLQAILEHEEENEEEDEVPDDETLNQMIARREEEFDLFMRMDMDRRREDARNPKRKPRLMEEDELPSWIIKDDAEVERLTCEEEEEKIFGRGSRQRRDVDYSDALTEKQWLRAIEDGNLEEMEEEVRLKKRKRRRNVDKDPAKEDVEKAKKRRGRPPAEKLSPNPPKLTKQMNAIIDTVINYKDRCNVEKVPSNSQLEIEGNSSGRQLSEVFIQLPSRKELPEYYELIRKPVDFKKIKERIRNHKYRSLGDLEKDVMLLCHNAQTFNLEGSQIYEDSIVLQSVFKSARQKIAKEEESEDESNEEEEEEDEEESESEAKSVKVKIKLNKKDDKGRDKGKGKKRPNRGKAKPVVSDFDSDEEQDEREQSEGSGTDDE
Assay: ATPase catalytic activity assay of BRM (ADP-Glo)
Type: biochemical
measurement_name: BRM Max % Inhibition

Consider the reported BRM Max % Inhibition for these compounds:
{"columns": ["compound", "result"],
 "data": [
  ["CC(C)S(=O)(=O)c1cccc(C(=O)NCC(=O)Nc2nc(-c3cc(C#N)cc(-c4ccc(CN)cc4)c3)cs2)c1", ">70%"],
  ["CCOC(=O)N1CCCC(c2csc(NC(=O)CNC(=O)c3ccc4c(c3)[C@](C)(F)COC4)n2)C1 (stereo in doubt)", ">95%"]
]}

BRM Max % Inhibition for Cc1nccc(-c2cccc(-c3csc(NC(=O)CNC(=O)c4ccc5c(c4)[C@@](C)(CO)CC5)n3)n2)n1 is >90%

BRM Max % Inhibition for Cc1nccc(-c2cccc(-c3csc(NC(=O)CNC(=O)c4cccc(C(C)(C)CN)c4)n3)c2)n1 [Compound 95] is >95%

BRM Max % Inhibition for Cc1cc(-c2cccc(-c3csc(NC(=O)CNC(=O)c4ccc(C)c(S(=O)(=O)C(C)C)c4)n3)n2)ncn1 is >95%

BRM Max % Inhibition for Cc1cc(-c2cccc(-c3csc(NC(=O)CNC(=O)c4ccc5c(c4)[C@](C)(CO)CC5)n3)n2)ncn1 is >95%

BRM Max % Inhibition for C[C@@H]1CN(c2cccc(-c3csc(NC(=O)CNC(=O)c4ccc5c(c4)[C@](C#N)(CO)CC5)n3)n2)C[C@H](C)O1 is >95%

====

Target: BRG-1 (Homo sapiens, UniProt P51532)
Sequence (P51532 whole entry): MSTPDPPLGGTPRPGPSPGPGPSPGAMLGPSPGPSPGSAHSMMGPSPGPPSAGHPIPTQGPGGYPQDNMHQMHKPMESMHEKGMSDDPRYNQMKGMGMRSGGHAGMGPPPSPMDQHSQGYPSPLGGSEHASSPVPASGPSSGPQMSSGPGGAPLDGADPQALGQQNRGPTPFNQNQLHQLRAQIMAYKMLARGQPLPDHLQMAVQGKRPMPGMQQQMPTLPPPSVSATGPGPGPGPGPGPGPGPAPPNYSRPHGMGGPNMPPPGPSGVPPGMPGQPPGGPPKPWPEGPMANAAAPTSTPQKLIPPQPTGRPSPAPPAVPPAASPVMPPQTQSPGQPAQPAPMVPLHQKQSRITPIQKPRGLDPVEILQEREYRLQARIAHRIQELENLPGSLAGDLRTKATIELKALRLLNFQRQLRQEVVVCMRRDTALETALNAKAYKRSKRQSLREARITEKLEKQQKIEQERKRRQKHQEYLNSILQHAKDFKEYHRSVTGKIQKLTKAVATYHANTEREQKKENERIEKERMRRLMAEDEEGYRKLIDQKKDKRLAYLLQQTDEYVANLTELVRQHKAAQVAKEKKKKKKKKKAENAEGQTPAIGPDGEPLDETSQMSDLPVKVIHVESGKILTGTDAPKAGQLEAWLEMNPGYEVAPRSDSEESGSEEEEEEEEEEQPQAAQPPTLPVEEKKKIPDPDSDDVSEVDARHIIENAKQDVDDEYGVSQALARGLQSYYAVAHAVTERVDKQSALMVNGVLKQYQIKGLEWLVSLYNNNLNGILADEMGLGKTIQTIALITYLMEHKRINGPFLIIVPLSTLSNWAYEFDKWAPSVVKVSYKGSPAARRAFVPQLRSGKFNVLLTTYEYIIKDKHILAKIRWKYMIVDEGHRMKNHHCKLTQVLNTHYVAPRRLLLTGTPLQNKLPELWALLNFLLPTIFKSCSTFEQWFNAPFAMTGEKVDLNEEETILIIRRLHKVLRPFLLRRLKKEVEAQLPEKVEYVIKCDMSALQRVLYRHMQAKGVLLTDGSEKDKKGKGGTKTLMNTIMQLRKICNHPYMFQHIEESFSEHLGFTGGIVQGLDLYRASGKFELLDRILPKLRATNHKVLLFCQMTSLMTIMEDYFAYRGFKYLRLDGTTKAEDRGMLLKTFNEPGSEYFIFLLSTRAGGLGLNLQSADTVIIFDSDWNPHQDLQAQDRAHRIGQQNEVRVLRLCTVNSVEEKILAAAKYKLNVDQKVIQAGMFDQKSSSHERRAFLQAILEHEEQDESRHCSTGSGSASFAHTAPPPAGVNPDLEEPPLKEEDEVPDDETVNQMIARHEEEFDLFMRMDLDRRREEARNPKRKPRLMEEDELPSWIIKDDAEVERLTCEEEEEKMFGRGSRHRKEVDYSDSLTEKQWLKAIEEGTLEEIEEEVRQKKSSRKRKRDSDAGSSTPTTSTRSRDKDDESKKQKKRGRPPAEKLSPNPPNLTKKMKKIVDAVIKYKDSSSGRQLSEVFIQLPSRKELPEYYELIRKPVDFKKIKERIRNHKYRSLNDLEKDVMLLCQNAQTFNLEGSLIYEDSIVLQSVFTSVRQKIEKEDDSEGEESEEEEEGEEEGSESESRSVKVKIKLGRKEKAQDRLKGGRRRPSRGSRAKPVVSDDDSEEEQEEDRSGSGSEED
Experiment: ATPase catalytic activity assay of BRG-1 (ADP-Glo)
Type: biochemical
Conditions: ATPase catalytic activity, ADP-Glo; read-out: BRG1 IC50 (μM)*
Quick reference for IC50 among some molecules

Consider the reported IC50 for these molecules:
{"columns": ["smiles_input", "result"],
 "data": [
  ["CC(C)S(=O)(=O)c1cccc(C(=O)NCC(=O)Nc2nc(-c3cccc(-c4cccc(C#N)c4)c3)cs2)c1", "1 to 5 µM"],
  ["C[C@@H]1CN(c2cccc(-c3csc(NC(=O)CNC(=O)c4ccc5c(c4)[C@](C)(C#N)COC5)n3)c2)C[C@H](C)O1", "< 0.1 µM"],
  ["C[C@@H]1CN(c2cc(F)cc(-c3csc(NC(=O)CNC(=O)c4ccc(Cl)c(C(C)(C)CO)c4)n3)c2)C[C@H](C)O1", "< 0.1 µM"],
  ["Cc1cc(-c2cccc(-c3csc(NC(=O)CNC(=O)c4cccc(C(C)(C)CN)c4)n3)c2)cc(C)n1", "0.1 to 1 µM"],
  ["C[C@@H]1CN(c2cccc(-c3csc(NC(=O)CNC(=O)c4ccc5c(c4)[C@@]4(COC5)CC4(F)F)n3)n2)C[C@H](C)O1", "1 to 5 µM"],
  ["CC(C)(CN)c1cccc(C(=O)NCC(=O)Nc2nc(-c3cccc(-c4cc(CO)cc(C(F)(F)F)c4)c3)cs2)c1", "1 to 5 µM"]
]}

IC50 for Cc1cc(C(=O)NCC(=O)Nc2nc(-c3cccc(-c4ccncc4)c3)cs2)cc(S(=O)(=O)C(C)C)c1 is > 5 µM

====

Quick reference for IC50 among some molecules
Biological target: BRM (Homo sapiens)
Assay: ATPase catalytic activity assay of BRM (ADP-Glo)
Format: biochemical
Conditions: read-out: BRM IC50 (μM)*

Consider the reported IC50 for these molecules:
{"columns": ["molecule", "IC50"],
 "data": [
  ["C[C@@H]1CN(c2cccc(-c3csc(NC(=O)CNC(=O)c4cccc([C@@H]5COC[C@H]5O)c4)n3)n2)C[C@H](C)O1 [Compound 160]", "0.1 to 1 µM"],
  ["C[C@@]1(C#N)COCc2ccc(C(=O)NCC(=O)Nc3nc(-c4cccc([C@@]56CCOC[C@@H]5C6)n4)cs3)cc21 [Compound 292]", "< 0.1 µM"],
  ["C[C@@]1(CO)CCc2ccc(C(=O)NCC(=O)Nc3nc(-c4cccc(-c5cccnc5O)n4)cs3)cc21 [Compound 264]", "1 to 5 µM"],
  ["COC(=O)N1CCC(c2csc(NC(=O)CNC(=O)c3ccc4c(c3)[C@](C)(F)COC4)n2)CC1 [Compound 281]", "0.1 to 1 µM"],
  ["Cc1nccc(-c2cccc(-c3csc(NC(=O)CNC(=O)c4ccc5c(c4)[C@](C)(C#N)CC5)n3)n2)n1 [Compound 249]", "< 0.1 µM"],
  ["COC[C@H](NC(=O)c1cccc(S(=O)(=O)C(C)C)c1)C(=O)Nc1nc(-c2cccc(-c3ccnc(C)c3)c2)cs1 [Compound 32]", "0.1 to 1 µM"]
]}

Continue with the next molecule.
IC50 for C[C@@H]1CN(c2cccc(-c3csc(NC(=O)CNC(=O)c4cccc(C5(C(F)F)CCCO5)c4)n3)c2)C[C@H](C)O1 (stereo partly shown) [Compound 306] is 0.1 to 1 µM
